Test: qHTS of pediatric cancer cell lines to identify multiple opportunities for drug repurposing: Primary screen for A673 cells (AID 1347092); further: nearly all actives have a fitted effect of over 45% in size
Details: A673 Ewing sarcoma viability, CellTiter-Glo ATP luminescence, 48 h; series mostly up to 46 µM
Results filed as inconclusive are left out. Active and inactive are the calls of the source. The call rests on the fitted dose curve; in most records, active means well fitted cell-killing curve with a large enough effect; inconclusive means small, poorly fitted or top-dose-only effect; inactive means no such curve, though single readings can be large or run the other way.
Labels: true = active, false = inactive

{"columns": ["COMPOUND", "QUALITATIVE LABEL"],
 "data": [
  ["O=C(C=CC#Cc1cccc(NS(=O)(=O)c2ccccc2)c1)NO", "true"],
  ["O=C1c2c(O)cccc2[C@@H]([C@@H]2O[C@H](CO)[C@@H](O)[C@H](O)[C@H]2O)c2cc(CO)cc(O)c21", "false"],
  ["OCCNC1CCCc2c1[nH]c1ccc(-c3ccccc3)cc21 (stereo not drawn)", "true"],
  ["CS(=O)(=O)N1CCc2c(-c3cnc(N)nc3)nc(N3CCOCC3)nc21", "true"],
  ["COc1cccc2c1C(=O)c1c(O)c3c(c(O)c1C2=O)C[C@@](O)(C(=O)CO)C[C@H]3O[C@H]1C[C@H](N)[C@H](O)[C@H](C)O1", "true"],
  ["C[C@]12CC[C@@H]3c4ccc(O)cc4CC[C@H]3[C@H]1CC[C@H]2O", "true"],
  ["CC(C)C[C@H](NC(=O)[C@@H](NC(=O)c1cccc(-c2ccccc2)n1)[C@@H](C)O)B(O)O", "true"],
  ["CS[C@H]1SC[C@@H]2C(=O)N(C)[C@H](C(C)C)C(=O)OC[C@H](NC(=O)c3cnc4ccccc4n3)C(=O)N[C@H](C)C(=O)N(C)[C@@H]1C(=O)N(C)[C@H](C(C)C)C(=O)OC[C@H](NC(=O)c1cnc3ccccc3n1)C(=O)N[C@H](C)C(=O)N2C", "true"],
  ["COc1ccc(S(=O)(=O)Nc2cccnc2Nc2ccc(O)cc2)cc1", "true"],
  ["Cn1cnc2c(F)c(Nc3ccc(Br)cc3F)c(C(=O)NOCCO)cc21", "false"],
  ["Cc1cc(Nc2ncc3c(n2)N(C)C(=O)N(c2cc(NC(=O)c4cccc(C(F)(F)F)c4)ccc2C)C3)n(C)n1", "true"],
  ["O=C(c1ccc(F)cc1)N1CCC[C@H](c2nc(-c3ccc(F)cc3)no2)C1", "false"],
  ["c1ccc(CNc2nc(NCc3ccccc3)c3ccccc3n2)cc1", "true"],
  ["OCC(O)C(O)C(O)CO (stereo not drawn)", "false"],
  ["COc1cc(OC)cc(-c2ccc3ncc4ccc(=O)n(-c5ccc(N6CCNCC6)c(C(F)(F)F)c5)c4c3c2)c1", "true"],
  ["CC(=O)OCC(=O)[C@@]12N=C(C)O[C@H]1C[C@H]1[C@@H]3CCC4=CC(=O)C=C[C@]4(C)[C@@H]3[C@@H](O)C[C@@]12C", "false"],
  ["CC(=O)[C@]1(O)Cc2c(O)c3c(c(O)c2[C@@H](O[C@H]2C[C@H](N)[C@@H](O)[C@H](C)O2)C1)C(=O)c1ccccc1C3=O", "true"],
  ["Oc1cc2c(cc1O)C1c3ccc(O)c(O)c3OCC1(O)C2 (stereo not drawn)", "false"]
]}
